# System: MS2 coat protein
# Experimental Details: apparent KD of MS2 coat protein; higher = weaker reporter binding
# Condition: Eterna round: R107; input ligand: theophylline 20 uM
Give apparent KD of MS2 coat protein for every item shown.
Answers are plain numbers, in nM.

Some solved entries appear below for comparison.
UUCGUAUUGUCGGCCGCCACUGCAACAUGAGGAUCACCCAUGUAAAUUUGGGAGUAGUUAUAUUACAGGACCGGGACAAUAGUAA [JR_ExcTryptoB_Sub019] = 113
UUAUAAGUACCGGUCCUCAGAUCCUCAUGACGAGGACCGGUACGGCCGCCACUCGAAACAUGAGGAUCACCCAUGUAAUAAUACC [Brourdmod12] = 71.5
UGGUACAUGAGGAUCACCCAUGUUCCAGAUACCAGACUCCCGGUGGUCCCUUGGCAGCUGGUGGUACAUGAGGAUCACCCAUGUG [Exclusion Theophylline A GF17] = 44.7
GGGUCGGGCGCGGCCGCCACUGCGGUGAUGUGACAUGAGGAUCACCCAUGUUGUCAUGUGGCACAUAGGACCGGGCGCCCGGCCC [#1 Exclusion - Tryptophan B Attempt #8 (HarryS)] = 46.8
GGGCCCGGCCGAAAGGCCGGGCCCGCUGAAGGAGCGGGAAAUAACCCAGGUAGGUCGCAGAGAUCCACAUGAGGAUCACCCAUGU [#26 Exclusion - Arginine A] = 64.1
AUUAUCAUGGUCAUUUAUAUUUCGUCAGAUACCAGACUAGAUAUAGUCCCUUGGCAGCUGUUACAUGAGGAUCACCCAUGUUAUU [JR_ExcTheophyA_Sub018] = 70.6

Value sought for every listed sequence: apparent KD of MS2 coat protein.
1. CACGCACGAUCGGCCGCCACUCAUGUAGCUUACAUGAGGAUCACCCAUGUAUUUUCUUUCUUUUAGAGGACCGGGAUCGUGCGUG [#03 Same State - Tryptophan B]
2. CUAAGAGCGGCGGCCGCCACUGGUAACCAAGAGGCGGAGCCUCUGACAUGAGGAUCACCCAUGUUCAGGACCGGGUCGUCUUAGA [#07 Same State - Tryptophan B]
3. UUCAAAGGGAACGGUGCUGGUAGCAGAGAUACCAGAGUAAUGAUACUCCCUUGGCAGCUCAGUACAUGAGGAUCACCCAUGUAAU [Exclusion Theophylline A GF24]
4. UAUAUAUAUAUGGAUACCAGCAGAGAAAACGUUUAUCCUAACAUGAGGAUCACCCAUGUAUGCCCUUGGCAGCUGUAUAUAUAUA [8.G]
5. AGCGCAGGUCCUGAUACCAGAGACAUGAGGAUCACCCAUGUCCGAUGGUCCUGCCUCAGGCUCCCUUGGCAGCAGGGCUUGUGCU [Exclusion Theophylline B GF10]

Result block:
48.5
13.6
20.2
29.5
13.1

---

Give apparent KD of MS2 coat protein for every item shown.
# System: MS2 coat protein
# Experimental Details: apparent KD of MS2 coat protein; designed switch direction (-1 OFF switch, 1 ON switch): 1; higher = weaker reporter binding
# Condition: input ligand: FMN 200 uM
Numbers only, in nM.

GGAUGACGGACAGGAUAUUGAUUCUAAUGGUUUCAAGAAGGGUCUUCGAUAUAAACGACCAGUUACAUGAGGAUCACCCAUGUU [JR_SSNG1_Sub033] (Eterna round: R96, puzzle: Same State NG 1) = 25.9
CGAAAGAGGUGAGGAUAUGCAGAGGAUCACCCUGUAGAAGGCAUCAGGUGAGGAUAUGCAGAGGAUCACCCUGUAGAAGGCAUC [pwkr ssNG DX.12] (Eterna round: R96, puzzle: Same State NG 1) = 151
CCAGGACAUGAGGAUCACCCAUGUGCUUAAUAUGGAGAAUCUCAGGAUAUCAUGAGGAUCACCCAUGAGAAGGGAGAUCCGAGG (Eterna round: R96, puzzle: Same State NG 3) = 144
CAGCGCUGUCGAGAGGAUAUGCGGUGAUGGACAUGAGGAUCACCCAUGUUAGCGACAGCAUUACGGUAGAAGGCUUCACAGCUGC [Soteed Omei mod 15] (Eterna round: R96, puzzle: Same State 2) = 287

Value sought for every listed sequence: apparent KD of MS2 coat protein.
1. GUGGUCAGACAUGAGGAUCACCCAUGUGGAAUAAAUAACGGACAGGAUAUUGAAUAUAGGAUAUACAAGAAGGGUUGAUUGGUG (Eterna round: R96, puzzle: Same State NG 3)
2. GGUAGGUUACUACCAAACAUGAGGAUCACCCAUGUAAGUGGGAAGGAUAUGGUACCUAUUUGGUACCAGAAGGUCCAAUUAAUU [Fiskers NG3ss - 3] (Eterna round: R96, puzzle: Same State NG 3)

Result block:
[83.6, 228]

Value sought for every listed sequence: apparent KD of MS2 coat protein.
1. AGUAGUGUAACAUGAGGAUCACCCAUGUAAGUAGAUGUAACCUAGGAUAUGGAUGAUAUGUUAGUCCAGAAGGAGGAUUGAAUA [JR_SSNG3_Sub037] (Eterna round: R96, puzzle: Same State NG 3)
2. UUGUGUUUGCGAGGAUAUCGUUUGUUGAAGUUACGAGAAGGCGCUCUCAUUACAUGAGGAUCACCCAUGUCUUUGAUGCAUGAU [JR_SSNG1_Sub071] (Eterna round: R96, puzzle: Same State NG 1)
3. GCUCGAUGAGCGUCCUACAUGAGGAUCACCCAUGUUCGUGGGCAGGAUAUUUACAUGCAGAGUGUAGAGAAGGGCCCAUCGAGC [SameState NG3 #65] (Eterna round: R96, puzzle: Same State NG 3)

Result block:
15.5
54.7
546
